Target: ScAbp1
Experiment: SPOT peptide array binding signal intensity (averaged, normalized) (arbitrary units (background-subtracted, floor 0; scale differs between SH3 domains)); higher = stronger binding of the SH3 domain to the peptide
Record form. Attribute: SPOT peptide array binding signal intensity. Fill in for each entry.
One number for each entry.

Please review the entries below; each comes with its answer.
> print(dat)
            binder  measured.value
1  RVRKTHVPASKRPSG            15.5
2  PELAPKREAPKPPAN               1
3  DHPKGPPPPPPPDEK               4
4  VGFRLALKFPSRITG             137
5  QQEQNTPPLPPKPKS               5

Okay, here is my list. What is SPOT peptide array binding signal intensity for each of these?
1. RKLRTVPGVPLIHLT
2. HRRRRVFSIPSLKSI
3. GSKSGPPPRPKKPST
4. RRRRRPHRIERPLSN
5. YLTRPLPSTPNEDSR
6. STPQTMRQAPKRPDA
7. EQEEIAPSLPSRNSI

Solution:
14
38
234
16
3.5
2.5
14.5
